// data source = paper PMC12566703

Would you kindly list IC50 for each of these compounds?
System: T. cruzi (NINOA) epimastigotes
Test: In vitro trypanocidal activity, Alamar Blue assay, 48 h
Assay type: cell-based, Trypanosoma cruzi
Settings: Trypanosoma cruzi, 48 h, epimastigotes, NINOA strain, 48 h; read-out: T. cruzi IC50 (µM ± SD) NINOA
Protocol: Both strains were maintained in liver infusion tryptose (LIT) medium supplemented with 10% FBS and 0.1% penicillin-streptomycin. They were preserved by transferring 1 × 10^6 parasites/mL into a new culture medium every week. […] The metabolic activity was determined by the Alamar Blue assay. Briefly, after the incubation period, 20 µL of 2.5 mM resazurin solution was added to each well and incubated for 3 h. […] The half-maximum inhibitory concentration (IC50) was determined using probit analysis.

Q: Fill in: IC50 of CCOC(=O)c1nc(C)c(C(=O)OC/C=C(\C)CCC=C(C)C)cc1-c1ccc(C)cc1 [Compound 12b] is ___
Result: > 200 µM

Q: Item: CCOC(=O)c1nc(C)c(C(=O)OCc2ccccc2)cc1-c1ccc(F)cc1 [Compound 4c]
Result: > 200 µM

Q: Also, CCOC(=O)c1nc(C)c(C(=O)OCc2ccc(C)cc2)cc1-c1ccccc1 [Compound 5a] please.
Result: ≤ 56.7 µM

Q: How about this compound: CCOC(=O)c1nc(C)c(C(=O)OCC23CC4CC(CC(C4)C2)C3)cc1-c1ccc(C)cc1 [Compound 10b]
Result: < 26.4 µM

Q: # iterate: CCOC(=O)c1nc(C)c(C(=O)OCc2ccc(C)cc2)cc1-c1ccc(F)cc1 [Compound 5c]
Result: > 200 µM

Q: Do the same for CCOC(=O)c1nc(C)c(C(=O)OCc2ccc3c(c2)OCO3)cc1-c1ccccc1 [Compound 6a] please
Result: < 28 µM

Q: Follow-up item: CCOC(=O)c1nc(C)c(C(=O)OCc2ccc(C)cc2)cc1-c1ccc(C)cc1 [Compound 5b]
Result: > 200 µM

Q: Also CCOC(=O)c1nc(C)c(C(=O)OCc2ccc3c(c2)OCO3)cc1-c1ccc(F)cc1 [Compound 6c] ?
Result: > 200 µM

Q: Repeat for the following compound: CCOC(=O)c1nc(C)c(C(=O)O[C@@H]2C[C@@H](C)CC[C@H]2C(C)C)cc1-c1ccc(F)cc1 [Compound 8c]
Result: ≤ 56.7 µM

Q: Okay, and CCOC(=O)c1nc(C)c(C(=O)OCc2ccccc2)cc1-c1ccccc1 [Compound 4a] ?
Result: ≤ 56.7 µM

Q: Now consider CCOC(=O)c1cc(-c2ccccc2)c(C(=O)OCC)nc1C [Compound 3a] and answer again.
Result: ≤ 56.7 µM

Q: Same question, CCOC(=O)c1nc(C)c(C(=O)OCCC(C)CCC=C(C)C)cc1-c1ccccc1 (centres unmarked) [Compound 11a] this time
Result: > 200 µM

Q: Next entry: CCOC(=O)c1nc(C)c(C(=O)O[C@@H]2C[C@H]3CC[C@@]2(C)C3(C)C)cc1-c1ccc(C)cc1 [Compound 9b]
Result: < 40 µM

Q: Field entry: CCOC(=O)c1nc(C)c(C(=O)OCCC(C)CCC=C(C)C)cc1-c1ccc(C)cc1 (centres unmarked) [Compound 11b]
Result: > 200 µM
